system: SK-MEL-28 melanoma; experiment: NCI tumour cell line growth inhibition, 48 h
REPORTED METRIC: TGI

CCOc1ccc(N(CC(=O)N2CC(=O)Nc3cc(C)c(C)cc32)C(C)=O)cc1: > 100 µM
Cc1ccc(-c2cc(C(=O)Nc3ccc(S(=O)(=O)N4CCCCC4)cc3)[nH]n2)c(O)c1: > 100 µM
Cc1[nH]c2ncn3[nH]c(=S)nc3c2c1Cc1ccccc1: > 100 µM
COc1ccccc1NC1Oc2cc3c(cc2C(c2cc(OC)c(OC)c(OC)c2)C1C)OCO3 (stereo not given): > 100 µM
COc1ccc(-c2cnc(-c3ccc(OC)cc3)n2-c2cc(OC)c(OC)c(OC)c2)cc1: 92 µM
CCOc1ccc(-c2nc3ccc(-c4nc5ccc(N6CCN(C)CC6)cc5[nH]4)cc3[nH]2)cc1: 2.13 µM

Entry O=C1CCCc2ccc([N+](=O)[O-])c(O)c21 : TGI on SK-MEL-28 melanoma = > 100 µM

GET /values?item= C[N+]1(C(CO)Cc2c[nH]c3ccccc23)Cc2ccccc2C1 (stereo not given) &system= SK-MEL-28 melanoma returns TGI: > 100 µM

Test item Cn1c(=O)c2c(nc3n2CCCC(=O)N3CCCCl)n(C)c1=O ; SK-MEL-28 melanoma; reported TGI was > 100 µM

Log: SK-MEL-28 melanoma, compound COC(=O)C(Cc1nc2ccc(Cl)cc2[nH]c1=O)C(=O)C(=O)Nc1cc(C)ccc1C (stereo not given) , TGI = > 100 µM

Fill in: SK-MEL-28 melanoma TGI for O=C1OC2(c3ccc(O)cc3Oc3cc(O)ccc32)c2cccc3cccc1c23 = 34.3 µM

# TGI measured on SK-MEL-28 melanoma for item Cc1nnn(C)c1-c1cnc2c3ccc(C(C)(C)O)cc3n([C@H](c3ccccc3)C3CCOCC3)c2c1 = > 100 µM

The value of TGI recorded for C[n+]1c2ccccc2c(N=[N+]=[N-])c2ccccc21 when tested on SK-MEL-28 melanoma reads > 10 µM

Lab note: compound O=c1[nH]c(-c2ccc(Cl)c(Cl)c2)cn1-c1ccc(Cl)cc1 tested on SK-MEL-28 melanoma; recorded TGI was > 100 µM

Entry O=C(O)c1cnc2c(ccc3[nH]cccc32)c1=O , SK-MEL-28 melanoma data, TGI value: > 100 µM

For Cn1cnc([N+](=O)[O-])c1Sc1n[nH]c(-c2ccc(Cl)cc2)n1 on SK-MEL-28 melanoma, measured TGI was 30.3 µM
